target: SARS-CoV-2 3CLpro (Severe acute respiratory syndrome coronavirus 2 (2019-nCoV) (SARS-CoV-2), UniProt P0DTD1); experiment: biochemical; type: biochemical; conditions: read-out: SARS-CoV-2 IC50
Assignment: determine reported IC50 for the given compounds.
Answer by giving the amount and then stating its unit.

The compound O=C(Cn1nnc2ccccc21)N(CC1CCCC1)c1ccc(-c2cccnc2)cc1 showed IC50 equal to 1160 nM

The compound N#Cc1cccc(CN(C(=O)Cn2nnc3ccccc32)c2ccc(-c3c[nH]cn3)cc2)c1 showed IC50 equal to 640 nM

The compound O=C(Cn1nnc2ccccc21)N(Cc1cc(F)cc(F)c1)c1ccc(-c2ncc[nH]2)cc1 showed IC50 equal to 340 nM

The compound COc1cc(Cl)cc(CN(C(=O)Cn2nnc3ccccc32)c2ccc(-c3c[nH]cn3)cc2)c1 showed IC50 equal to 57 nM

The compound O=C(Cn1nnc2ccccc21)N(Cc1cccc(Cl)c1)c1ccc(-c2ccc[nH]c2=O)cc1 showed IC50 equal to 746 nM

Give IC50 for all compounds that follow.
1. O=C(Cn1nnc2ccccc21)N(Cc1cc(F)cc(F)c1)c1ccc(CCO)cc1
2. O=C1CNCCN1c1ccc(N(Cc2cc(F)cc(F)c2)C(=O)Cn2nnc3ccccc32)cc1

Return:
["460 nM", "3400 nM"]

====

Assignment: determine reported pIC50 for the given compounds.
biological target: SARS-CoV-2 3CLpro (Severe acute respiratory syndrome coronavirus 2 (2019-nCoV) (SARS-CoV-2), UniProt P0DTD1); test: biochemical; assay type: biochemical; details: read-out: SARS-CoV-2 IC50
One number for each entry, as −log10 of the molar value.

# example entries with known answers
The compound NC(=O)Cc1ccc(N(Cc2cc(F)cc(F)c2)C(=O)Cn2nnc3ccccc32)cc1 [Compound 94] showed pIC50 equal to 6.17

The compound O=C(Cn1nnc2ccccc21)N(Cc1cccc(Cl)c1)c1ccc(-c2cn[nH]c2)nc1 [Compound 39] showed pIC50 equal to 6.48

We next turn to a different compound, shown below.
The compound CC(=O)NCc1ccc(N(Cc2cc(F)cc(F)c2)C(=O)Cn2nnc3ccccc32)cc1 [Compound 123] showed pIC50 equal to 6.11

====

target: SARS-CoV-1 3CLpro (Severe acute respiratory syndrome coronavirus (SARS-CoV), UniProt P0C6X7)
measured endpoint: IC50

# example entries with known answers
The molecule O=C(Cn1nnc2ccccc21)N(Cc1ccc(Cl)c(Cl)c1)c1ccc(-c2cccnc2)cc1 [Compound 30] showed IC50 equal to > 200000 nM

The molecule O=C(Cn1nnc2ccccc21)N(CC1CCOC1)c1ccc(-c2cccnc2)cc1 (stereo not shown) [Compound 26] showed IC50 equal to 20500 nM

The molecule O=C(Cn1nnc2ccccc21)N(Cc1cc(F)cc(Cl)c1)c1ccc(-c2cccnc2)cc1 [Compound 31] showed IC50 equal to 74 nM

We next turn to a different molecule, shown below.
The molecule O=C(Cn1nnc2ccccc21)N(Cc1cccc(Cl)c1)c1ccc(-c2cn[nH]c2)cn1 [Compound 40] showed IC50 equal to 214 nM

====

target: SARS-CoV-2 3CLpro (Severe acute respiratory syndrome coronavirus 2 (2019-nCoV) (SARS-CoV-2), UniProt P0DTD1); experiment: biochemical; type: biochemical; conditions: read-out: SARS-CoV-2 IC50
measured endpoint: pIC50
Answers are plain numbers, as −log10 of the molar value.

# example entries with known answers
The compound O=C(Cn1nnc2ccccc21)N(Cc1cc(Cl)ccc1F)c1ccc(-c2c[nH]cn2)cc1 showed pIC50 equal to 7.12

The compound O=C(Cn1nnc2ccccc21)N(Cc1cc(F)cc(Cl)c1)c1ccc(-c2c[nH]cn2)cn1 showed pIC50 equal to 7.21

The compound O=C(Cn1nnc2ccccc21)N(Cc1cc(F)ccc1F)c1ccc(-c2c[nH]cn2)cc1 showed pIC50 equal to 6.66

We next turn to a different compound, shown below.
The compound COc1cc(N(Cc2cccc(Cl)c2)C(=O)Cn2nnc3ccccc32)ccc1-c1cn[nH]c1 showed pIC50 equal to 6.48

====

system: SARS-CoV-2; assay: microbe, parasite or virus in culture; format: cell-based; conditions: Severe acute respiratory syndrome coronavirus 2, Vero C1008, 68 h, read-out: CPE Inhibition Assay EC50
measured endpoint: EC50 (µM)
Give bare numbers, in µM.

# example entries with known answers
The compound O=C(Cn1nnc2ccccc21)N(Cc1ccsc1)c1ccc(-c2c[nH]cn2)cc1 showed EC50 equal to 1.74

The compound O=C(Cn1nnc2ccccc21)N(Cc1ccsc1)c1ccc(-c2cccnc2)cc1 [Compound 17b, reference compound] showed EC50 equal to 12.1

The compound O=C(Cn1nnc2ccccc21)N(Cc1cccc(Cl)c1)c1ccc(-c2cn[nH]c2)cc1 showed EC50 equal to 1.98

Others:
The compound O=C(Cn1nnc2ccccc21)N(Cc1cccc(Cl)c1)c1ccc(-c2cccnc2)cc1 showed EC50 equal to 7.61

====

target: SARS-CoV-2 3CLpro (Severe acute respiratory syndrome coronavirus 2 (2019-nCoV) (SARS-CoV-2)); experiment: biochemical; format: biochemical; conditions: read-out: SARS-CoV-2 IC50
pIC50: −log10 of the molar value.
Would you please tag the item T when its pIC50 is 6 or above, and F when it is below?

Look over these answered cases.
Enquiry: Could you verify whether the entry O=C(Cn1nnc2ccccc21)N(Cc1cncc(Cl)c1)c1ccc(-c2cccnc2)cc1 [Compound 34] shows pIC50 of no less than 6?
Return: T

Enquiry: Could you verify whether the entry O=C(Cn1nnc2ccccc21)N(Cc1cccc(Cl)c1)c1ccc(-c2cn[nH]c2)cc1 [Compound 36] shows pIC50 of no less than 6?
Return: T

Enquiry: Could you verify whether the entry N#Cc1ccc(N(Cc2cc(F)cc(F)c2)C(=O)Cn2nnc3ccccc32)cc1 [Compound 102] shows pIC50 of no less than 6?
Return: F

Enquiry: Could you verify whether the entry O=C(Cn1nnc2ccccc21)N(Cc1cncc(F)c1)c1ccc(C2CNC2)cc1 [Compound 119] shows pIC50 of no less than 6?
Return: T

Enquiry: Could you verify whether the entry CC(c1cc(F)cc(F)c1)N(C(=O)Cn1nnc2ccccc21)c1ccc(-c2c[nH]cn2)cc1 (stereo not drawn) [Compound 88] shows pIC50 of no less than 6?
Return: T

Others:
Enquiry: Could you verify whether the entry O=C1CC(c2ccc(N(Cc3cc(F)cc(F)c3)C(=O)Cn3nnc4ccccc43)cc2)CN1 (stereo not drawn) [Compound 115] shows pIC50 of no less than 6?
Return: T

Enquiry: Could you verify whether the entry O=C(Cn1ccnn1)N(Cc1cccc(Cl)c1)c1ccc(-c2cn[nH]c2)cc1 [Compound 113] shows pIC50 of no less than 6?
Return: F

====

target: SARS-CoV-2 3CLpro (Severe acute respiratory syndrome coronavirus 2 (2019-nCoV) (SARS-CoV-2)); assay: biochemical; type: biochemical; conditions: read-out: SARS-CoV-2 IC50
measured endpoint: IC50 (nM)
One number for each entry, in nM.

# example entries with known answers
The compound O=C(Cn1nnc2ccccc21)N(Cc1ccc(F)cn1)c1ccc(-c2c[nH]cn2)cc1 [Compound 103] showed IC50 equal to 9500

The compound O=C(Cn1ccnn1)N(Cc1cc(F)cc(Cl)c1)c1ccc(-c2c[nH]cn2)cc1 [Compound 112] showed IC50 equal to 410

Give IC50 for all compounds that follow.
1. O=C(Cn1nnc2ccccc21)N(Cc1cc(F)cc(Cl)c1)c1ccc(-c2cccnc2)cc1 [Compound 31]
2. O=C(Cn1nnc2ccccc21)N(Cc1cccc(Cl)c1)c1ccc(-c2cn[nH]c2)cn1 [Compound 40]
3. O=C(Cn1nnc2ccccc21)N(Cc1ccsc1)c1ccc(-c2c[nH]cn2)cc1 [Compound 21]

Return:
[119, 171, 60]
